molecular target: hCA II (Homo sapiens); experiment: hCA II esterase activity inhibition (p-nitrophenylacetate); type: biochemical; settings: KI hCA II, esterase activity, p-nitrophenylacetate substrate, Lineweaver-Burk; mean ± SD
measuredEndpoint: Ki (µM)
Numbers only, in µM.

Lab request: please report Ki under test system hCA II (Homo sapiens) for `NS(=O)(=O)c1ccc(NCc2cccc(Br)c2O)cc1` 0.0101

###

For each record, write down the corresponding Ki.
biological target: hCA II (Homo sapiens); assay: hCA II esterase activity inhibition (p-nitrophenylacetate); type: biochemical; details: esterase activity, p-nitrophenylacetate substrate, Lineweaver-Burk; mean ± SD; read-out: KI hCA II
Numbers only, in nM.

Below, 5 molecules whose answers are already recorded.
[
  {
    "molecule": "NS(=O)(=O)c1ccc(N=Cc2cccc(Br)c2O)cc1 [Compound 3]",
    "Ki, nM": 26.3
  },
  {
    "molecule": "NS(=O)(=O)c1cccc(N=Cc2cccc(Cl)c2O)c1 [Compound 2]",
    "Ki, nM": 13.8
  },
  {
    "molecule": "NS(=O)(=O)c1cccc(NCc2cccc(Br)c2O)c1 [Compound 5]",
    "Ki, nM": 19.8
  },
  {
    "molecule": "NS(=O)(=O)c1cccc(NCc2cccc(Cl)c2O)c1 [Compound 6]",
    "Ki, nM": 29.1
  },
  {
    "molecule": "NS(=O)(=O)c1ccc(N=Cc2cccc(Cl)c2O)cc1 [Compound 4]",
    "Ki, nM": 79.3
  }
]

Suppose we examine the molecule NS(=O)(=O)c1cccc(N=Cc2cccc(Br)c2O)c1 [Compound 1] ; what Ki value has been reported? 16.4

###

For each record, write down the corresponding Selectivity index KI (hCA II/hCA I).
molecular target: hCA II (Homo sapiens); test: hCA II esterase activity inhibition (p-nitrophenylacetate); type: biochemical; conditions: ratio of KI values
Numbers only.

Below, 6 compounds whose answers are already recorded.
[
  {
    "molecularString": "NS(=O)(=O)c1cccc(NCc2cccc(Cl)c2O)c1",
    "Selectivity index KI (hCA II/hCA I)": 0.29
  },
  {
    "molecularString": "NS(=O)(=O)c1cccc(NCc2cccc(Br)c2O)c1",
    "Selectivity index KI (hCA II/hCA I)": 0.38
  },
  {
    "molecularString": "NS(=O)(=O)c1ccc(NCc2cccc(Cl)c2O)cc1",
    "Selectivity index KI (hCA II/hCA I)": 1.93
  },
  {
    "molecularString": "NS(=O)(=O)c1ccc(N=Cc2cccc(Br)c2O)cc1",
    "Selectivity index KI (hCA II/hCA I)": 0.33
  },
  {
    "molecularString": "NS(=O)(=O)c1cccc(N=Cc2cccc(Br)c2O)c1",
    "Selectivity index KI (hCA II/hCA I)": 0.27
  },
  {
    "molecularString": "NS(=O)(=O)c1ccc(NCc2cccc(Br)c2O)cc1",
    "Selectivity index KI (hCA II/hCA I)": 0.16
  }
]

I would be grateful if you could provide Selectivity index KI (hCA II/hCA I) for each of the following entries.
1. NS(=O)(=O)c1cccc(N=Cc2cccc(Cl)c2O)c1
2. NS(=O)(=O)c1ccc(N=Cc2cccc(Cl)c2O)cc1

1. 0.21
2. 1.98
